Sourced from PubChem BioAssay (NCI)

Test system: MCF7 breast
Test: NCI tumour cell line growth inhibition, 48 h
Parameter TGI: see the listing below.

Some entries whose results are on file:
>  <molecule>
CC(SCc1ccccc1)C(=O)O (centres undefined)

>  <TGI>
> 100 µM

$$$$
>  <molecule>
COc1cc2nccc(Oc3ccc(NC(=O)c4cn(C(C)C)c(=O)n(-c5ccc(F)cc5)c4=O)cc3F)c2cc1OC

>  <TGI>
> 100 µM

$$$$
>  <molecule>
C=C1[C@@H]2CCC3[C@]4(C)C(CC[C@@]5(C)C(=O)O[C@H](O)[C@@H]45)[C@H](O)[C@]3(C2)[C@H]1OC1OC(CO)C(O)C(O)C1O (some centres undefined)

>  <TGI>
> 50 µM

$$$$
>  <molecule>
COc1ccc(-c2cc(=O)c3c(O)c(OC)c(OC)c(OC)c3o2)cc1

>  <TGI>
> 100 µM

$$$$
>  <molecule>
CSc1ccc(/C=C2\N=C(c3ccccc3)N(c3nc4cc(Cl)c(F)cc4s3)C2=O)cc1

>  <TGI>
> 100 µM

$$$$
>  <molecule>
N#Cc1c(-c2ccc([N+](=O)[O-])cc2)c(C#N)c(=O)n(NS(=O)(=O)c2ccccc2)c1O

>  <TGI>
> 100 µM

$$$$
>  <molecule>
Cc1nc2c(=O)n(-c3ccccc3)c(=O)n(-c3ccccc3)c2o1

>  <TGI>
> 100 µM

$$$$
>  <molecule>
COc1ccc(-c2cc3cc(Cl)cc(Cl)c3oc2=O)cc1OC

>  <TGI>
> 100 µM

$$$$

Here is another molecule to look at.
Problem: Supply recorded TGI for CCN(CC)CCCCNc1c2ccc(Cl)cc2nc2ccc(OC)cc12 here.
Result: 1.69 µM

* * *

Tested on: T-47D breast
Assay: NCI tumour cell line growth inhibition, 48 h
property-name: TGI (µM)
Field format: number, assumed µM, no unit text.

Some entries whose results are on file:
>  <compound-smiles>
NC(=O)c1ccc[n+](C2=C([O-])c3ccccc3C(=O)/C2=N\S(=O)(=O)c2ccccc2)c1

>  <TGI, µM>
53.6

$$$$
>  <compound-smiles>
CSc1nc(=O)c2nc(-c3cccs3)c(-c3cccs3)nc2n1C

>  <TGI, µM>
80.4

$$$$
>  <compound-smiles>
O=C1C=CC(=O)c2c(O)c(N3CCC[C@@H]3CO)c(Cl)c(O)c21

>  <TGI, µM>
4.27

$$$$

Problem: Find TGI for CC(C)c1ccc(NC(=O)Cc2ccc(Nc3ncnc4cc(-c5cnn(CCN(C)C)c5)ccc34)cc2)cc1 on T-47D breast and write it down.
Result: 3.73

* * *

Parameter TGI: see the listing below.
Tested on: U251 CNS
Assay: NCI tumour cell line growth inhibition, 48 h

>  <compound>
COc1ccc2[nH]c(C(=O)OCc3ccc4c(Cl)cc(Cl)c(O)c4n3)cc2c1

>  <subject-of-test>
U251 CNS

>  <val>
2.94 µM

$$$$
>  <compound>
CC[C@H](NC(=O)OC(C)(C)C)C(=O)NCP(=O)(OCc1ccc([N+](=O)[O-])cc1)OCc1ccc([N+](=O)[O-])cc1

>  <subject-of-test>
U251 CNS

>  <val>
97.1 µM

$$$$
>  <compound>
CCc1nc2c(c(N(C)C)c1C(=O)OC)CCc1ccccc1-2

>  <subject-of-test>
U251 CNS

>  <val>
> 100 µM

$$$$
>  <compound>
CC[C@]12C=CCN3CCC4(c5cc([C@@]6(C(=O)OC)CC7CN(CCc8c6[nH]c6ccccc86)CC6CCCCC67)c(OC)cc5N(C)C4[C@](O)(C(=O)OC)C1OC(C)=O)[C@@H]32 (some centres not stated)

>  <subject-of-test>
U251 CNS

>  <val>
< 0.01 µM

$$$$
>  <compound>
COc1cc(N=Nc2ccc(OC)c(S(=O)(=O)O)c2)c(C)cc1N=Nc1ccc(/C=C/c2ccc(N=[N+]([O-])c3ccc(/C=C/c4ccc(N=Nc5cc(C)c(N=Nc6ccc(OC)c(S(=O)(=O)O)c6)cc5OC)cc4S(=O)(=O)O)c(S(=O)(=O)O)c3)cc2S(=O)(=O)O)c(S(=O)(=O)O)c1

>  <subject-of-test>
U251 CNS

>  <val>
> 100 µM

$$$$
>  <compound>
COC(C)C(O)(C(=O)OCC1=CCN2CCC(O)C12)C(C)(C)O (configuration not stated)

>  <subject-of-test>
U251 CNS

>  <val>
> 100 µM

$$$$

Problem: Supply recorded TGI for O=C(c1ccco1)N(C(=O)N1CCC(c2ccccc2)CC1)c1ccccc1 here.
Result: > 100 µM

* * *

Test system: SK-MEL-28 melanoma
Assay: NCI tumour cell line growth inhibition, 48 h
Parameter TGI: see the listing below.

Some entries whose results are on file:
>  <compound>
O=c1[nH]c(=O)n(C2CC(O)C(CO)O2)cc1C(F)(F)F (stereo not given)

>  <TGI>
> 100 µM

$$$$
>  <compound>
CSc1ccc(/C=C2\N=C(c3ccccc3)N(c3nc4cc(Cl)c(F)cc4s3)C2=O)cc1

>  <TGI>
> 100 µM

$$$$
>  <compound>
CC1=CCCC2C(C=O)(C1)CC(C)C2(CO)CC/C(=C/CO)CO (stereo not given)

>  <TGI>
> 100 µM

$$$$
>  <compound>
N#Cc1cccc(N2C(=O)C3C4C=CC(C3C2=O)C2C(=O)N(c3cccc(C#N)c3)C(=O)C42)c1 (stereo not given)

>  <TGI>
> 63.1 µM

$$$$
>  <compound>
COc1ccc(S(=O)(=O)N(C(C)=O)c2ccccc2/C=C/c2cc[n+]([O-])cc2)cc1

>  <TGI>
> 10 µM

$$$$
>  <compound>
Nc1ccc(/C=C/c2ccc3cccnc3c2)cc1

>  <TGI>
> 100 µM

$$$$
>  <compound>
COc1cc2cnc3c4cc(OCc5ccccc5)ccc4ccc3c2cc1OC

>  <TGI>
> 100 µM

$$$$
>  <compound>
O=C(NC(C(F)(F)F)(C(F)(F)F)P(=O)(Cc1ccccc1)Cc1ccccc1)C(C(F)(F)F)C(F)(F)F

>  <TGI>
53.1 µM

$$$$

Problem: Supply recorded TGI for COC(=O)N/N=C(\C)CC(=O)Nc1ccc(Cl)cc1 here.
Result: > 100 µM

Problem: Supply recorded TGI for COc1cc2c(cc1OCc1ccccc1)NC(=O)[C@@H]1CCCN1C2=O here.
Result: > 100 µM

* * *

Tested on: MCF7 breast
Experiment: NCI tumour cell line growth inhibition, 48 h
property-name: GI50

Some entries whose results are on file:
>  <compound>
COc1cc2nccc(Oc3ccc(NC(=O)c4cn(C(C)C)c(=O)n(-c5ccc(F)cc5)c4=O)cc3F)c2cc1OC

>  <val>
> 100 µM

$$$$
>  <compound>
O=C(Nc1cccc(C(F)(F)F)c1)Oc1ccc(Cl)c2cccnc12

>  <val>
1.46 µM

$$$$
>  <compound>
CN(C)CCCNc1nc2ccccc2c2[nH]c3ccccc3c12

>  <val>
0.417 µM

$$$$
>  <compound>
CC(C)(C)OC(=O)N[C@@H](Cc1ccccc1)C(=O)N(Cc1ccccc1)C1(C(=O)NCc2ccccc2)CCN(Cc2ccccc2)CC1

>  <val>
2.82 µM

$$$$
>  <compound>
CCOC(=O)C1=C(C)NC(c2ccco2)=C(C#N)C1c1cccc([N+](=O)[O-])c1 (stereo not drawn)

>  <val>
0.0339 µM

$$$$

Problem: Supply recorded GI50 for CCn1c2ccccc2c2cc(C(=O)c3ccc(C)c4ccccc34)ccc21 here.
Result: 0.311 µM

Problem: Supply recorded GI50 for CNC(=O)c1cncc(/C=C/c2ccccc2Cl)c1 here.
Result: > 25 µM

Problem: Supply recorded GI50 for CC1SC(c2ccc(Cl)cc2Cl)N(NC(=O)C(O)c2ccccc2)C1=O (stereo not drawn) here.
Result: 57 µM

Problem: Supply recorded GI50 for COc1c(N2CCN(CN3C(=O)C(=Nc4ccc(S(=O)(=O)Nc5ncccn5)cc4)c4cc(Cl)ccc43)C(C)C2)c(F)cc2c(=O)c(C(=O)O)cn(C3CC3)c12 (stereo not drawn) here.
Result: 11.9 µM

Problem: Supply recorded GI50 for CC[C@H](C)[C@H](NC(=O)c1cccn1C)C(=O)N(C)[C@H](C[C@@H](OC(C)=O)c1nc(C(=O)N[C@@H](Cc2ccccc2)C[C@H](C)C(=O)OC)cs1)C(C)C here.
Result: 0.0807 µM

Problem: Supply recorded GI50 for CN1CCN(CCCOc2cc(O)c3c(=O)cc(-c4ccccc4)oc3c2)CC1 here.
Result: 15.3 µM

Problem: Supply recorded GI50 for COc1cc2c3c(n(CCCNCCCN)c(=O)c2cc1OC)-c1cc2c(cc1C3=O)OCO2 here.
Result: 0.504 µM

Problem: Supply recorded GI50 for COc1cc(CNc2oc(-c3ccccc3)c(-c3ccccc3)c2C#N)cc(CN2CCN(C)CC2)c1O here.
Result: 1.46 µM
